# Tested target: Cyclin E1 (Homo sapiens, UniProt P24864+Q96SW2)
# Sequence (P24864 whole entry, one chain of several): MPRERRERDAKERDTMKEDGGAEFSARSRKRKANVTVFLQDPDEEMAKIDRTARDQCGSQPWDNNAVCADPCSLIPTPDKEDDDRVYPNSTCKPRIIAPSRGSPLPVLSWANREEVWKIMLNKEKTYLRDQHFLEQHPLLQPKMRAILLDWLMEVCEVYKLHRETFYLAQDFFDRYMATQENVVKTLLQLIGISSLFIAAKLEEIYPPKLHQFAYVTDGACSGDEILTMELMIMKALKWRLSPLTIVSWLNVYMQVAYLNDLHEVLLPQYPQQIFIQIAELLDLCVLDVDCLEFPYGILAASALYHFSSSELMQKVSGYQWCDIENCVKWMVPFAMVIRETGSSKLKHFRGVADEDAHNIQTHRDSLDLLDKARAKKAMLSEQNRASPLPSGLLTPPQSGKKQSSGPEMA
# Protocol description: Cyclin E1 Cellular Degradation Assay (MSD)
# Assay type: cell-based
# Set-up: endogenous in cells; host or cells: OVCAR3
# Assay conditions: Cyclin E1 cellular degradation, maximum degradation
Observation type: Dmax (%)
Provide the reading as a plain figure in %.

Worked examples, 3 compounds total:
> print(dat)
                                   compound  observed.result
1  O=C1CCC(N2Cc3ccc(COC(=O)Nc4ccc(Oc5ccc(F)c(F)c5)cc4F)c(OC4CCOCC4)c3C2=O)C(=O)N1 (stereo not shown) [Example 132]              107
2  CC(C)Oc1c(COC(=O)Nc2ccc(Oc3ccc(F)c(F)c3)cc2)ccc2c1C(=O)N(C1CCC(=O)NC1=O)C2 (stereo not shown) [Example 56]              106
3  O=C1CCC(N2Cc3ccc(COC(=O)Nc4ccc(Oc5ccc(F)cc5Cl)cc4)c(Oc4ccccc4)c3C2=O)C(=O)N1 (stereo not shown) [Example 70]               94

If you can, please state the reported Dmax value of COc1c(COC(=O)Nc2ccc(Cc3cccc(F)c3)cc2F)ccc2c1C(=O)N(C1CCC(=O)NC1=O)C2 (stereo not shown) [Example 20] .
101

If you can, please state the reported Dmax value of CN(C)C(=O)COc1c(COC(=O)Nc2ccc(Oc3ccc(F)c(F)c3)cc2)ccc2c1C(=O)N(C1CCC(=O)NC1=O)C2 (stereo not shown) [Example 175] .
110

If you can, please state the reported Dmax value of COc1c(COC(=O)Nc2ccc(Oc3ccc(F)cc3)cc2C)ccc2c1C(=O)N(C1CCC(=O)NC1=O)C2 (stereo not shown) [Example 51] .
106

If you can, please state the reported Dmax value of COc1c(COC(=O)Nc2ccc(Oc3ccc(F)cc3C)cc2F)ccc2c1C(=O)N(C1CCC(=O)NC1=O)C2 (stereo not shown) [Example 95] .
110

* * *

Dmax: recorded values
# Tested target: GSPT1 (Homo sapiens, UniProt P15170+Q96SW2)
# Sequence (P15170 whole entry): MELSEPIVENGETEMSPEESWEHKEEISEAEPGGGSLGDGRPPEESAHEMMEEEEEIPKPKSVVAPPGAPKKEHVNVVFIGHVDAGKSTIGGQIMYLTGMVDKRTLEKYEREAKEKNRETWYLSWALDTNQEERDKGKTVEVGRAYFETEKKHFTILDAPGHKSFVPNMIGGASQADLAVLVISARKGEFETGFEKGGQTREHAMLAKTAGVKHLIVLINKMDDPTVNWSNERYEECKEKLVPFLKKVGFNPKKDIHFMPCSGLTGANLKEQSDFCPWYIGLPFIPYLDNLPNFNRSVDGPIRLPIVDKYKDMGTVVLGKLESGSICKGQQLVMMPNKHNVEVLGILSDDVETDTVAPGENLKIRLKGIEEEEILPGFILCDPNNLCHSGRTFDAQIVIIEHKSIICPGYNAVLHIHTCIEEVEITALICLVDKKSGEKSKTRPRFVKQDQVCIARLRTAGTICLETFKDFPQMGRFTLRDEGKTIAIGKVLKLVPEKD
# Sequence (Q96SW2 whole entry): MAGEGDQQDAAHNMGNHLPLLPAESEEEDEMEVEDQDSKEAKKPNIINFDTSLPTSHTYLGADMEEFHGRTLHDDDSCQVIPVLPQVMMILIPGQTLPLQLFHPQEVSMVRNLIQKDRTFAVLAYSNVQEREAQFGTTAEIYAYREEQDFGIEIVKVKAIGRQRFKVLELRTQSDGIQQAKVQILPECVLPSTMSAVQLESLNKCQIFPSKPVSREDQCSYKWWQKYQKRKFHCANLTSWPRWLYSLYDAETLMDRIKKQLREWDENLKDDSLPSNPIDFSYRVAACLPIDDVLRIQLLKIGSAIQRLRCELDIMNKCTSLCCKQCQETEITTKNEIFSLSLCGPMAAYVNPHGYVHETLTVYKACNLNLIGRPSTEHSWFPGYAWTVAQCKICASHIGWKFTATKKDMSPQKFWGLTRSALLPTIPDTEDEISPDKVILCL
# Sequence (Q16531 whole entry partner): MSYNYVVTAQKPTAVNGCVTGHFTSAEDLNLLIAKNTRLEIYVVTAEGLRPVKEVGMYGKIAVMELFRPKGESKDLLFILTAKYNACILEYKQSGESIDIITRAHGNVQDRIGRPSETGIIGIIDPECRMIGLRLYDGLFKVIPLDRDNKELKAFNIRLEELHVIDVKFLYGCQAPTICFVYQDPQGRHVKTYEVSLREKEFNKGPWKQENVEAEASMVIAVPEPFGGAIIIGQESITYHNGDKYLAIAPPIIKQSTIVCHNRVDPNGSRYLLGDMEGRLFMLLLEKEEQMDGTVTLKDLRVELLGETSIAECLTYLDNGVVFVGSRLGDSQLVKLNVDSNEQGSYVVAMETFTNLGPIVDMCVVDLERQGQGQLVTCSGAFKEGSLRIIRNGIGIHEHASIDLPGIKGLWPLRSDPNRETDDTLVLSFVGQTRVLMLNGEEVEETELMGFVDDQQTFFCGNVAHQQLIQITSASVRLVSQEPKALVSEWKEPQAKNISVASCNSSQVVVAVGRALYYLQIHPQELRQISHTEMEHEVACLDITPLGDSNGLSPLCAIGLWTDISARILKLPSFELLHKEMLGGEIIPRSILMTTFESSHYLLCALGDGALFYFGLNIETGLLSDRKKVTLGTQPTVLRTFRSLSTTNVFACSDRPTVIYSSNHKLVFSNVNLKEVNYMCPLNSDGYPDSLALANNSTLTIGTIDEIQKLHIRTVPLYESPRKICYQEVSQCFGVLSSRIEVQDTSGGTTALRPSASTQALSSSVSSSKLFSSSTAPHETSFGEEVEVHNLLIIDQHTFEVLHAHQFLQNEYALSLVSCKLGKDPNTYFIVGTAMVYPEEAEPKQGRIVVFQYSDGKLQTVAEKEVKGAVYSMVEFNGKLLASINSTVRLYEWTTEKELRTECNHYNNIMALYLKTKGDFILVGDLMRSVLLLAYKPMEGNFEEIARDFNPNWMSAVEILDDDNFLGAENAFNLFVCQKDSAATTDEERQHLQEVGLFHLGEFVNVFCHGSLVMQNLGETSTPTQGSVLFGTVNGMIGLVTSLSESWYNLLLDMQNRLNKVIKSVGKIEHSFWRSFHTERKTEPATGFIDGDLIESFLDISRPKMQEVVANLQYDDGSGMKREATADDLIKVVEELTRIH
# Protocol description: GSPT1 Cellular Degradation Assay (DF15-GSPT1-ePL)
# Format: cell-based
# Set-up: expressed in transfected cells
# Assay conditions: DF15-GSPT1-ePL cells, 20 hours
Provide the reading as a plain figure in %.

Worked examples, 5 compounds total:
> print(dat)
                                   compound  observed.result
1  COc1cc(Oc2cc(F)c(F)c(F)c2)ccc1NC(=O)OCc1ccc2c(c1OC)C(=O)N(C1CCC(=O)NC1=O)C2 (stereo not drawn)                5
2  COc1c(COC(=O)Nc2ccc(Cc3cc(F)c(F)c(F)c3)cc2)ccc2c1C(=O)N(C1CCC(=O)NC1=O)C2 (stereo not drawn)                9
3  CC(C)(O)COc1c(COC(=O)Nc2ccc(Oc3ccccc3)cc2)ccc2c1C(=O)N(C1CCC(=O)NC1=O)C2 (stereo not drawn)               16
4  CC(=O)N1CCC(Oc2c(COC(=O)Nc3ccc(Oc4ccc(F)c(F)c4)cc3)ccc3c2C(=O)N(C2CCC(=O)NC2=O)C3)CC1 (stereo not drawn)               10
5  O=C1CCC(N2Cc3ccc(COC(=O)Nc4ccc(Oc5ccc(F)c(F)c5)cc4)c(OC4COC4)c3C2=O)C(=O)N1 (stereo not drawn)               19

If you can, please state the reported Dmax value of NC(=O)COc1c(COC(=O)Nc2ccc(Oc3ccc(F)c(F)c3)cc2)ccc2c1C(=O)N(C1CCC(=O)NC1=O)C2 (stereo not drawn) .
20

If you can, please state the reported Dmax value of O=C1CCC(N2Cc3ccc(COC(=O)Nc4ccc(Oc5ccc(F)cc5F)cc4F)c(O[C@@H]4CCCOC4)c3C2=O)C(=O)N1 (stereo partly drawn) .
10

If you can, please state the reported Dmax value of COc1c(COC(=O)Nc2ccc(Oc3cc(F)c(F)cc3F)cc2C)ccc2c1C(=O)N(C1CCC(=O)NC1=O)C2 (stereo not drawn) .
38

If you can, please state the reported Dmax value of COc1c(COC(=O)Nc2ccc(Oc3ccc(Cl)c(F)c3)cc2F)ccc2c1C(=O)N(C1CCC(=O)NC1=O)C2 (stereo not drawn) .
20

If you can, please state the reported Dmax value of COc1c(COC(=O)Nc2ccc(Oc3ccccc3F)cc2)ccc2c1C(=O)N(C1CCC(=O)NC1=O)C2 (stereo not drawn) .
31

If you can, please state the reported Dmax value of O=C1CCC(N2Cc3ccc(COC(=O)Nc4ccc(Oc5ccc(F)c(F)c5)cc4)c(OC4CCCCC4)c3C2=O)C(=O)N1 (stereo not drawn) .
1

If you can, please state the reported Dmax value of O=C1CCC(N2Cc3ccc(COC(=O)Nc4ccc(Oc5ccc(F)c(F)c5)cc4)c(O[C@H]4CCOC4)c3C2=O)C(=O)N1 (stereo partly drawn) .
32
